Method description: Oral bioavailability in rat at 5 mg/kg
Format: ADME, organism-based
Experimental conditions: in vivo
Measurement type: bioavailability (%)

* C[C@@H]1Cc2nn3c(c2CN1C(=O)Nc1ccc(F)c(C#N)c1)C(=O)N(C)C[C@@H](F)C3 | 54

###

Method description: Half life in rat at 5 mg/kg, po or 1.25 mg/kg, iv
Assay type: ADME, organism-based
Experimental conditions: in vivo
Measurement type: half-life (h)

- C[C@@H]1Cc2nn3c(c2CN1C(=O)Nc1ccc(F)c(C#N)c1)C(=O)N(C)C[C@@H](F)C3: 1.92

###

Method description: Oral bioavailability in Beagle dog at 2.5 mg/kg
Type: ADME, organism-based, Canis lupus familiaris
Experimental conditions: in vivo
Measurement type: bioavailability

* C[C@@H]1Cc2nn3c(c2CN1C(=O)Nc1ccc(F)c(C#N)c1)C(=O)N(C)C[C@@H](F)C3 | 47%

###

Entries and their CLint scaled values follow.
Method description: Intrinsic clearance in human liver microsomes
Assay type: ADME, Microsome
Experimental conditions: read-out: CLH
Measurement type: CLint scaled

- CN1OC(CO)Cn2nc3c(c2C1=O)CN(C(=O)Nc1ccc(F)c(Cl)c1)CC3 (racemic): < 7 mL/min/kg
- C[C@@H]1Cc2nn3c(c2CN1C(=O)Nc1ccc(F)c(C#N)c1)C(=O)N(C)C[C@H](F)C3: < 6 mL/min/kg
- CN1CC(CO)Cn2nc3c(c2C1=O)CN(C(=O)Nc1ccc(F)c(Cl)c1)CC3 (racemic): < 5 mL/min/kg
- C[C@@H]1Cc2nn3c(c2CN1C(=O)Nc1ccc(F)c(C#N)c1)C(=O)N(C)C[C@@H](F)C3: < 6 mL/min/kg
